# target: recombinant homotrimeric HA A/common magpie/Hong Kong/5052/07 H5N1 (Influenza A virus A/common magpie/Hong Kong/5052/2007(H5N1))
# measurement.protocol: protein microarray, purified IgG, trimeric HA
# settings: remark: other sources report otherwise
result.type: Trimeric HA Binding: RLU
Write down the value, and be sure its unit follows.

binder	endpoint.value
TCN-552 (5249_I23) (antibody, V domains shown) VH: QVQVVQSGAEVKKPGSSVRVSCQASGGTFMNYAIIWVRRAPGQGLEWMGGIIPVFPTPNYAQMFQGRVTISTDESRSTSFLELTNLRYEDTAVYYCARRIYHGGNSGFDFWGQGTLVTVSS VL: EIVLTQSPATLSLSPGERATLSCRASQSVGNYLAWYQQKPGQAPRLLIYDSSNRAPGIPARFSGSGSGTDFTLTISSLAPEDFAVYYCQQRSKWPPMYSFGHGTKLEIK	19400 RLU

Moving on to the next binder.
Q: Return reported Trimeric HA Binding: RLU; argument: TCN-537 (3194_D21) (antibody, V domains shown) VH: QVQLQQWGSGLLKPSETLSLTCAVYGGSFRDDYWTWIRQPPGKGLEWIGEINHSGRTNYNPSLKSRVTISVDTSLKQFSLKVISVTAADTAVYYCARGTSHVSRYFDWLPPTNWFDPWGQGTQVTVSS VL: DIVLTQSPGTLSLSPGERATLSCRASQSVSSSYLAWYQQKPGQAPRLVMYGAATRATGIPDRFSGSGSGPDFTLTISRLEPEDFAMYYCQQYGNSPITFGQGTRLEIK
A: 810 RLU
